biological target: S1P3 (Homo sapiens, UniProt Q99500); assay: S1P receptor calcium flux assay, agonist format (S1P3); settings: FLIPR TETRA
Sequence (Q99500 whole entry): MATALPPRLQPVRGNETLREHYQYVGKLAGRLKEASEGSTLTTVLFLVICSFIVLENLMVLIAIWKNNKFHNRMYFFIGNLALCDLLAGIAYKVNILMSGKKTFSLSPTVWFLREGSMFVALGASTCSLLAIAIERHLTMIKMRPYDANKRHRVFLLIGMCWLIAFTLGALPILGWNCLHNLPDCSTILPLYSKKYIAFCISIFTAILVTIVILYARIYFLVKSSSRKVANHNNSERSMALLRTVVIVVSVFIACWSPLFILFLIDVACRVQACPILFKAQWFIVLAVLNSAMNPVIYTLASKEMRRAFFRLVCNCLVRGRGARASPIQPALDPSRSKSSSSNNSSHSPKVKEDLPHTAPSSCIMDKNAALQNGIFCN
QUANTITY NAME: EC50

The recorded EC50 for entry CC(C)(C)[C@H]1CC[C@H](Oc2cnc(-c3cccc(CNCCC(=O)O)c3)nc2)CC1 [Example 50] equals 0.05 to 5 µM

Data provenance: patent US9771326B2
